# Lookup of reported Inhibition keyed by entry
system: HepG2; experiment: GSK_TCMDC: Percent inhibition of human HepG2 cell line. Test compounds present at 10uM.; format: functional
Give your result in % as a bare value.

Guide cases for Inhibition, answers given:
O=C(/C=C/c1ccc(Cl)c(Cl)c1)NCCCCCN1CCCC(C(=O)Nc2ccc(Cl)cc2)C1 (centres undefined) ... 35
COc1cc(NC2=C(c3ccccc3)C(=O)c3ccccc32)ccn1 ... 7
Cc1nc(O)c2c(ccc3ccc(CNc4ccc(C(=O)N[C@@H](CCC(=O)O)C(=O)O)c(F)c4)cc32)n1 ... 41
COc1cccc(NC(=O)c2cc([N+](=O)[O-])ccc2NC(=O)CN2CCc3ccccc3C2)c1 ... 5

Problem: Form: Entry = Cl.N=C(N)c1cc(Br)cc(NC(=O)Nc2cc(Br)cc(C(=N)N)c2)c1 | System = HepG2 | Inhibition = ____
Solution: 0

Problem: Moving on to Cc1nc(-c2ccc(-c3ccc(NC(=O)c4coc5ccc(N6CC(C)NC(C)C6)cc45)cc3)c(C)c2)no1.Cl (centres undefined)
Solution: 1

Problem: Continue with Cc1cc(N[C@@H](Cc2ccccc2)C(=O)NCCc2ccccc2)nc(NCCc2ccc(F)cc2)n1.O=C(O)C(F)(F)F
Solution: 9

Problem: Quick one: CN1CCN(CCCN(Cc2cccc(-c3cccc(CNC4CCCC4)c3)c2)C(=O)CCC2CCCC2)CC1.O=C(O)C(F)(F)F
Solution: 35

Problem: Next: Cc1ccc(N2CCN(C(=O)c3cccc(-c4cncc5nc(-c6ccco6)n(C)c45)c3)CC2)nc1
Solution: 0

Problem: Proceed to Cc1cc(NC(=O)Nc2ccc(C#N)cc2)c2ccccc2n1
Solution: 88

Problem: What do you get for Nc1nccc2ccc(-c3ccc4ncccc4c3)cc12.O=C(O)C(F)(F)F ?
Solution: 97

Problem: Also check Cc1cccc2nc(-c3cccc(-c4ccc(CNCCNC(=O)c5ccnn5C)cc4)c3)[nH]c12.O=C(O)C(F)(F)F
Solution: 21

// data source = ChEMBL document CHEMBL1157539
